This collection of values is drawn from PubChem BioAssay AID1671190.

- Assay Target: Polyunsaturated fatty acid lipoxygenase ALOX12 (Homo sapiens)
- Assay Explanation: Primary qHTS assay for inhibitors of human arachidonate 12S-lipoxygenase (ALOX12): Round 2
- Condition: purified 12hLO, xylenol orange hydroperoxide absorbance; series mostly up to 108 µM
Among all 580,000 compounds or so, about 6,100 (1.1%) were called active. About 15% were inconclusive and are not listed. The call rests on the fitted dose curve; in most records, active means well fitted inhibition curve with a large enough effect; inconclusive means small, poorly fitted or top-dose-only effect, or another doubt; inactive means no such curve, though single readings can be large or run the other way. The list comes from a sample in which actives are over-represented; it also holds close analogues and randomly drawn compounds.
Give one outcome, nothing more. List: TRUE = active, FALSE = inactive

Some solved entries appear below for comparison.
# Compound, Label Value
measured = [
    ("Cc1ncc(-c2ccc(S(=O)(=O)Nc3ccc(F)c(F)c3)cc2)o1", "FALSE"),
    ("CCc1cccc2c(C(=O)CSc3nncn3C(C)C)c[nH]c12", "FALSE"),
    ("NCCCNC(=S)NCCCN(Cc1ccc(Cl)cc1)c1ccc(Br)cn1", "TRUE"),
    ("N#Cc1ccccc1S(=O)(=O)N1CCN(C(=O)c2cc(-c3ccccc3)nn2-c2ccccc2)CC1", "FALSE"),
    ("CC(C)NC(=O)c1cccc2c1CCCN2CC(=O)NCCc1ccccc1", "FALSE"),
]

q: Field: outcome | Entry: Oc1ccc(O)c([S+]2CCCC(C3CCCCC3)C2)c1 (stereo not drawn)
a: TRUE

q: Field: outcome | Entry: O=C(NC1CCCc2c1[nH]c1ccc(F)cc21)c1n[nH]c2c1CCCC2 (stereo not drawn)
a: FALSE

q: Field: outcome | Entry: Cc1ccc(-c2csc(-c3cc4c([nH]c3=O)CC(c3ccco3)CC4=O)n2)cc1 (stereo not drawn)
a: TRUE

q: Field: outcome | Entry: O=C1CC(c2ccccc2)C(c2ccccc2)=NN1 (stereo not drawn)
a: FALSE

q: Field: outcome | Entry: CCc1ccc(Nc2ncc3c(n2)CC(c2ccco2)CC3=O)cc1 (stereo not drawn)
a: FALSE

q: Field: outcome | Entry: `S=C(NCCCc1cnc[nH]1)NCCCN(Cc1ccc(Cl)c(Cl)c1)c1ccc(Br)cn1`
a: TRUE

q: Field: outcome | Entry: `CC(C)c1ccc(NC(=O)c2ccc3c(Cl)c4c(nc3c2)CCCC4)cc1`
a: FALSE

q: Field: outcome | Entry: `Cc1ccc(-c2csc(N(Cc3ccco3)C(=O)c3cccs3)n2)cc1`
a: FALSE

q: Field: outcome | Entry: CCCC(=O)C1C(=O)CC(c2ccc(OC)c(OC)c2)CC1=O (stereo not drawn)
a: FALSE

q: Field: outcome | Entry: `CCC(=C/c1sc2ccc3ccccc3c2[n+]1C)/C=C1\Sc2ccc3ccccc3c2N1C`
a: TRUE

q: Field: outcome | Entry: `CC(=O)Nc1cccc(C(=O)N2CCC3(CC2)NC(=O)N(c2cccc(Cl)c2)N3)c1`
a: TRUE
